assay: Inverse transport (basolateral to apical, B → A) across hBLECs and efflux ratio; type: in vitro ADME, human; conditions: human, pH 7.4; 50 μM in basolateral compartment, 60 min (Figure 7)
Readout kind: Papp B→A at 60 min, 50 μM (×10⁻⁶ cm/s)
Report the figure in ×10⁻⁶ cm/s without appending any unit label.

Value of Papp B→A at 60 min, 50 μM reported for the compound CC(=O)NC1C(O)CC(OC2C(O)C(OC3C(CO)OC(O)C(O)C3O)OC(CO)C2OC2OC(CO)C(O)C(OC3OC(CO)C(O)C(O)C3O)C2NC(C)=O)(C(=O)O)OC1C(O)C(O)CO (stereo not shown) is 8.7

---

assay: Direct transport (apical to basolateral, A → B) across the hBLEC monolayer: Pe and Papp; type: in vitro ADME, human; details: human, pH 7.4, 50 μM, 60 min, 4 °C (Figure 6d); read-out: Papp A>B at 4 °C
Readout kind: Papp A→B at 60 min, 50 μM (×10⁻⁶ cm/s)
// note: answer is a bare numeric in ×10⁻⁶ cm/s

Recorded Papp A→B at 60 min, 50 μM (molecule CC(=O)NC1C(O)CC(OC2C(O)C(OC3C(CO)OC(O)C(O)C3O)OC(CO)C2OC2OC(CO)C(O)C(OC3OC(CO)C(O)C(O)C3O)C2NC(C)=O)(C(=O)O)OC1C(O)C(O)CO (stereo not shown) ): 6.7

---

Assay: Direct transport (apical to basolateral, A → B) across the hBLEC monolayer: Pe and Papp
Type: in vitro ADME, human
Conditions: human, pH 7.4, 50 μM, after 60 min, hBLEC monolayer; read-out: endothelial permeability Pe (A → B) (converted)
Description: Prior to the experiments, in order to verify the hBLECs’ monolayer integrity and stability, the permeability parameters were verified as previously reported. […] To verify the quantity of LY, at the end of the experiments, aliquots from the donor solution were taken at the end of the experiments and the fluorescence was quantified using a quantification curve of LY as referee. […] Pe parameters were calculated according to the formulas shown in the Supplementary Information (Equations (7)–(10)). […]
Readout kind: Papp A→B at 60 min, 50 μM (×10⁻⁶ cm/s)
Quick reminder: number only, in ×10⁻⁶ cm/s, skip the unit.

Entry under test: CC(=O)NC1C(O)CC(OC2C(O)C(OC3C(CO)OC(O)C(O)C3O)OC(CO)C2OC2OC(CO)C(O)C(OC3OC(CO)C(O)C(O)C3O)C2NC(C)=O)(C(=O)O)OC1C(O)C(O)CO (stereo not shown) . Its Papp A→B at 60 min, 50 μM was 9.67

---

test: Direct transport (apical to basolateral, A → B) across the hBLEC monolayer: Pe and Papp; assay type: in vitro ADME, human; conditions: human, pH 7.4, 50 μM, 60 min, 37 °C, temperature experiment (Figure 6d); read-out: Papp A>B at 37 °C
Readout kind: Papp A→B at 60 min, 50 μM
Give the number first and the unit second.

# Papp A→B at 60 min, 50 μM of CC(=O)NC1C(O)CC(OC2C(O)C(OC3C(CO)OC(O)C(O)C3O)OC(CO)C2OC2OC(CO)C(O)C(OC3OC(CO)C(O)C(O)C3O)C2NC(C)=O)(C(=O)O)OC1C(O)C(O)CO (stereo not shown) = 8.8 ×10⁻⁶ cm/s
